// data source = paper PMC7071059

- Test system: NCI-H522
- protocol notes: NCI 60 one dose (10 μM) anticancer assay
- Assay type: cell-based
- test conditions: Homo sapiens, 10 µM one dose, Non-small cell lung Cancer, read-out: Growth Inhibition % NCI-H522
quantity: inhibition at 10 µM (%)
State the answer as a number, implicitly in %.

// query Record request: inhibition at 10 µM value, item Cc1ccc(-c2nc3ccccc3n2CC(=O)N/N=C/c2ccc(OCc3ccccc3)cc2)o1 [Compound 17d]
// result 27

// query # lookup: inhibition at 10 µM of Cc1ccc(-c2nc3ccccc3n2CC(=O)N/N=C/c2cccc(OCc3ccccc3)c2)o1 [Compound 17b]
// result 28

// query Suppose we examine the compound CC(C)c1nc2ccccc2n1CC(=O)N/N=C/c1cccc(OCc2ccccc2)c1 [Compound 17a] ; what inhibition at 10 µM value has been reported?
// result 33
